Taken from IntAct's records for PubMed 28176834.

B1: Tudor domain-containing protein 3 (Homo sapiens), Q9H7E2-3 (parent)
chain: MAQVAGAALSQAGWYLSDEGIEACTSSPDKVNVNDIILIALNTDLRTIGKKFLPSDINSGKVEKLEGPCVLQIQKIRNVAAPKDNEESQAAPRMLRLQMTDGHISCTAVEFSYMSKISLNTPPGTKVKLSGIVDIKNGFLLLNDSNTTVLGGEVEHLIEKWELQRSLSKHNRSNIGTEGGPPPFVPFGQKCVSHVQVDSRELDRRKTLQVTMPVKPTNDNDEFEKQRTAAIAEVAKSKETKTFGGGGGGARSNLNMNAAGNRNREVLQKEKSTKSEGKHEGVYRELVDEKALKHITEMGFSKEASRQALMDNGNNLEAALNVLLTSNKQKPVMGPPLRGRGKGRGRIRSEDEEDLGNARPSAPSTLFDFLESKMGTLNVEEPKSQPQQLHQGQYRSSNTEQNGVKDNNHLRHPPRNDTRQPRNEKPPRFQRDSQNSKSVLEGSGLPRNRGSERPSTSSVSEVWAEDRIKCDRPYSRYDRTKDTSYPLGSQHSDGAFKKRDNSMQSRSGKGPSFAEAKENPLPQGSVDYNNQKRGKRESQTSIPDYFYDRKSQTINNEAFSGIKIEKHFNVNTDYQNPVRSNSFIGVPNGEVEMPLKGRRIGPIKPAGPVTAVPCDDKIFYNSGPKRRSGPIKPEKILESSIPMEYAKMWKPGDECFALYWEDNKFYRAEVEALHSSGMTAVVKFIDYGNYEEVLLSNIKPIQTEAWEEEGTYDQTLEFRRGGDGQPRRSTRPTQQFYQPPRARN
partner: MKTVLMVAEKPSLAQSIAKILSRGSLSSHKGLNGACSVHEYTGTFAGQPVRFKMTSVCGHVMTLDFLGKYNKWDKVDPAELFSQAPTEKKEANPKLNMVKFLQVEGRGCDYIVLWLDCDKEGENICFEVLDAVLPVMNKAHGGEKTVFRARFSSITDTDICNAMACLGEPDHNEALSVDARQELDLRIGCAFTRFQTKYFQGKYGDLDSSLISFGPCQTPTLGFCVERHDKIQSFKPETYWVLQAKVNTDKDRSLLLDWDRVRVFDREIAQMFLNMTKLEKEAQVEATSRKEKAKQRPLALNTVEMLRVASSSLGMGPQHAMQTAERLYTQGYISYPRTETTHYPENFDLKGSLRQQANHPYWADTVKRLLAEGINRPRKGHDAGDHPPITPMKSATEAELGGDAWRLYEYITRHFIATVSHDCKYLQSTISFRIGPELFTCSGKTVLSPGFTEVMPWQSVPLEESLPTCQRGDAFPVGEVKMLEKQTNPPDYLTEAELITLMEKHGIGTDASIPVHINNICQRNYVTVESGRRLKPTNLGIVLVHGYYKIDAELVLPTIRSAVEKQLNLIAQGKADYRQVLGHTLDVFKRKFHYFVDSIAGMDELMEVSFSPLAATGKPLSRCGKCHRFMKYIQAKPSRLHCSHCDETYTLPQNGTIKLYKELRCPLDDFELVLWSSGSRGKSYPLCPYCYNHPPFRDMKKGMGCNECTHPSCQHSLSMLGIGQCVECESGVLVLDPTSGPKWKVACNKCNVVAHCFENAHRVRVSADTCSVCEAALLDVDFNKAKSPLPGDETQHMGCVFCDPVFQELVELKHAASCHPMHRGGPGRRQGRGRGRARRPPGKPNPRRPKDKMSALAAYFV

Variants of: B1
Settings: with top3b_human TOP3B, O95985

{"mutationList": "F139V", "effect of a mutation on the interaction": "with no effect"}
{"mutationList": "R96M;V109M;F139V", "effect of a mutation on the interaction": "with no effect"}
{"mutationList": "R96M;F111Y", "effect of a mutation on the interaction": "with no effect"}
